The reported numbers originate from patent US8389557B2.

# ASSAY_TARGET: Axl (Homo sapiens, UniProt P30530)
# Construct: endogenous in cells; host or cells: HeLa cells
# Sequence (P30530 26-894): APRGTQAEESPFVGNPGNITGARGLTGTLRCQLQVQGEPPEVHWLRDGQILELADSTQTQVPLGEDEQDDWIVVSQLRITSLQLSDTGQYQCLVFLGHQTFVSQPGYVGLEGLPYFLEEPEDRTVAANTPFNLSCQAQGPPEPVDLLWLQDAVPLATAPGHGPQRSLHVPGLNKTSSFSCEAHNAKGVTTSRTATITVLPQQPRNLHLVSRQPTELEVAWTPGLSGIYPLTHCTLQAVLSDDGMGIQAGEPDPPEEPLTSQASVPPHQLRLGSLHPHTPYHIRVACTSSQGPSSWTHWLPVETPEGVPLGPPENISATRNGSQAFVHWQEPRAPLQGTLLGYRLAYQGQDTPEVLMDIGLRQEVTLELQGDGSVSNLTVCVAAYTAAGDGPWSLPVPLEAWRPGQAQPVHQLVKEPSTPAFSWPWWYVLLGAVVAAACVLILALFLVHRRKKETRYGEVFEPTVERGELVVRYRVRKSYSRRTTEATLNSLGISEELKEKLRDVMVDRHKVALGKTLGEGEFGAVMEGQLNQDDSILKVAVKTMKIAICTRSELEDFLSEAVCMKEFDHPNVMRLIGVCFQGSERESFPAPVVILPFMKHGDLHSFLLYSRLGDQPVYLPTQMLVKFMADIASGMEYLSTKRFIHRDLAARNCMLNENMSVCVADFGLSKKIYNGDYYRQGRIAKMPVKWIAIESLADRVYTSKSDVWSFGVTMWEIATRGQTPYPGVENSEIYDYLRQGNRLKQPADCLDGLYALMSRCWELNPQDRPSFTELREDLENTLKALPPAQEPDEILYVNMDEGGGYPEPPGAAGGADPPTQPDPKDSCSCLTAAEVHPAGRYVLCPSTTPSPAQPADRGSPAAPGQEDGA
# PROCEDURE_TEXT: Phospho-Akt in-cell Western assay (inhibition of Axl activity)
# Assay type: cell-based
# CONDITION_CONTEXT: Table 10; Hela cells, Axl antibody cross-linking stimulation, phospho-Akt chemiluminescence
# Procedure: The compounds of the invention were tested in the following assay for their ability to inhibit Axl activity. Phospho-Akt in-Cell Western Assay […]
READOUT: IC50

> print(dat)
                                   compound                        assay.target  readout  observed
1  NC(=O)C1C2C=CC(C2)C1Nc1nc(N)nn1C(=O)c1ccc2cc[nH]c2c1 (stereo not shown)  Axl (Homo sapiens, UniProt P30530)     IC50   > 20 µM
